Hello, the source for this data is paper PMC12040169, in case you need it.

Assay: in vitro
Conditions: human, hela cells, % viability

Molecule	Unit String	viability at 28.5 h, 10 µM
CCCNC(=O)[C@@H]1Cc2c([nH]c3ccccc23)[C@]2(CCN(CCOc3ccccc3)C2)N1 [CBK063172T]	%	101
CCCC(=O)N1CCC(c2nc3ccccn3c2NC(C)(C)C)CC1	%	81.9
Cn1c(=O)n(CC(=O)N2CCCc3ccccc32)c2cccnc21	%	86.7
COc1ccnc(N2CCN(C(=O)c3cncnc3C)CC2)n1	%	104
COc1cc(C)c(Nc2cccc(-c3ccc(O)cc3)n2)cc1OC	%	107
CC1=NN(c2ccc(Cl)cc2)C(=O)/C1=C\Nc1nnn[nH]1	%	91
Cc1cccc(CCNC(=O)N2CCN(Cc3ccccn3)CC2)c1	%	103
CC(=O)Nc1ccc(N2C(=O)c3ccc(S(=O)(=O)c4ccc5c(c4)C(=O)N(c4ccc(NC(C)=O)cc4)C5=O)cc3C2=O)cc1	%	77.8
NC(=O)C1(Cc2ccccc2-c2cccc(F)c2)CCN(C(=O)c2cccc(F)c2)CC1	%	96.8

====

Assay: in vitro
Conditions: human, hela cells, % viability

Compound	viability at 28.5 h, 10 µM [%]
CCCN(CC1CC1)C(=O)Cn1c([C@@H]2CCCO2)cc2cccnc21 [CBK282871]	94.4
COc1ccc(NS(=O)(=O)c2ccc(NC(=O)c3nc4nc(C)cc(C(F)F)n4n3)cc2)cc1 [CBK266123]	91.4
COc1ccc(OC)c(NC(=O)c2ccccc2C(=O)O)c1 [CBK287082]	86.9
COc1ccc2c(c1)/C(=C/c1cnc[nH]1)C(=O)N2 [CBK115354]	72.5
CSc1cccc(NC(=O)N2CCN(C(=O)C3CCCO3)CC2)c1 (stereo not drawn) [CBK043283]	100
Cn1cc(C(=O)N2CCC3(C/C=C/C[C@H]4COCC[C@H]4NC(=O)CNC3=O)CC2)cn1 [CBK292069]	103
Cc1cnc2[nH]c(C3CCCN(C(=O)c4cn(C)nc4C)C3)cc2c1 (stereo not drawn) [CBK285170]	110
O=C(O)c1ccc(S(=O)(=O)N(CC2CC=CCC2)CC2CCCO2)cc1 (stereo not drawn) [CBK286685]	101
Cc1onc(-c2ccc(Cl)cc2)c1C(=O)N1CCN(C2CCN(C)CC2)CC1 [CBK149087]	97.1

====

Test: in vitro
Conditions: human, hela cells, % viability
Quick reference: viability at 28.5 h, 10 µM of the listed items.

Molecule	Unit String	viability at 28.5 h, 10 µM
COc1cccc(Oc2nccnc2-c2cccs2)c1	%	91.6
C=CCN1C(=O)CC2(C1=O)C(=O)N(Cc1nnc(-c3ccc(C)cc3)o1)c1ccc(Cl)cc12 (stereo not drawn)	%	104
CCCCc1ccc(-c2nc3ncccc3cc2O)cc1	%	91.3
CSCCN(C)c1nc2c(c(=O)[nH]1)Cc1ccccc1OC2	%	100
Cc1noc(C)c1C(=O)N1CCCCCC1c1c(Cl)cnn1C (stereo not drawn)	%	93.3
CCNc1nc2c(ncn2C2CC(O)C(CO)O2)c(=O)[nH]1 (stereo not drawn)	%	99.6
CCc1cccc(CC)c1NC(=O)CN(c1cccc(Cl)c1Cl)S(C)(=O)=O	%	103
O=C(c1ccc(S(=O)(=O)c2ccc(F)cc2)c([N+](=O)[O-])c1)N1CCCCCC1	%	78.3
O=C(Nc1ccccc1OC1CCNCC1)c1ccccc1 [CBK050238T]	%	115

====

Test: in vitro
Conditions: human, hela cells, % viability
Quick reference: viability at 28.5 h, 10 µM of the listed items.
Recorded Endpoint: viability at 28.5 h, 10 µM (%)

Compound	Recorded Endpoint	Test Result
CN(C)/C=N/c1nc(=O)n([C@H]2CC(O)[C@@H](CO)O2)cc1/C=C/C(=O)NCCCCCCNC(=O)C(F)(F)F (stereo partly drawn) [CBK201330]	viability at 28.5 h, 10 µM	97.1
CN1CCN(CCCN2C(=O)CSC2c2cccc([N+](=O)[O-])c2)CC1 (stereo not drawn) [CBK278237C]	viability at 28.5 h, 10 µM	99.9
CC(NC(=O)c1cc2ccc(N(C)C)cc2[nH]1)c1ccccn1 (stereo not drawn) [CBK281821]	viability at 28.5 h, 10 µM	80.6
Cc1cc(N2CCN(C(=O)CCc3ccccc3)CC2)nc(C(C)C)n1 [CBK305711]	viability at 28.5 h, 10 µM	99.3
CC(NS(=O)(=O)Cc1ccccc1Cl)C(=O)N1CCCCC1 (stereo not drawn) [CBK304928]	viability at 28.5 h, 10 µM	93.7
NC(=O)C1(Cc2cccc(-c3cccs3)c2)CCN(C(=O)COc2ccccc2)CC1 [CBK285741]	viability at 28.5 h, 10 µM	103
C=C[C@H]1C[N@@]2CC[C@H]1C[C@@H]2CNS(=O)(=O)c1cccc2cccnc12 [CBK288751]	viability at 28.5 h, 10 µM	98.2
C=CCNC1OC(CO)C(O)C(O)C1O (stereo not drawn) [CBK261357]	viability at 28.5 h, 10 µM	88.9
CC1c2ccsc2CCN1C(=O)c1ccnn1C(C)C (stereo not drawn) [CBK282079]	viability at 28.5 h, 10 µM	89.2

====

Quick reference: viability at 28.5 h, 0.000416667 µM of the listed items.
Test: in vitro
Parameters: Viability of infected HeLa host cells, resazurin conversion, bulk resorufin fluorescence relative to DMSO
Conditions: human, hela cells; bulk resorufin, mean of 3

Molecule	viability at 28.5 h, 0.000416667 µM [%]
C1=C(CCNCCc2ccccc2)c2ccccc2C12CCCC2 [c51e]	99.8
O=C(N/N=C\c1ccc([N+](=O)[O-])o1)c1nc(-c2ccccc2)cc(-c2ccccc2)n1	92
CN(C)c1ccc(Nc2nc(NCCO)c3ccccc3n2)cc1 [c27e]	93.3
CC1=C(C)C(=NNC(N)=S)C(C)=C(C)C1=NNC(N)=S [c19e]	101
Oc1ccccc1Nc1nc(NC2CCCC2)c2ccccc2n1 [c49e]	84.4
O=C(c1ccc(-c2ccc(F)cc2)o1)N1C[C@H]2CC[C@](O)(c3ccc(F)cc3)[C@H]2C1	90.3
Cc1cccc(-c2ccc(CC3(C(N)=O)CCN(C(=O)CCc4ccccc4)CC3)cc2)c1 [c38e]	101
Cc1noc(-c2ccc3c(c2O)OCCO3)c1-c1ccc(Cl)cc1 [c20e]	99.7
CCC1C(c2ccc(C)cc2)=CCC(C(=O)NCCCN(C)C)C1C (stereo not drawn) [c30e]	91.8
Fc1cccc(F)c1OCCOc1nc(N2CCNCC2)ccc1C(F)(F)F [c21e]	85.4
c1c(C2CC2)[nH]c2nc(N3CCCC3)nc(N3CCCC3)c12	88.8
Fc1cc(Br)c(CNCc2ncc[nH]2)c(N2CCCCC2)c1F [c31e]	101
Cc1cccc(OCC(C)NC(=O)NCCc2cnn(C)c2)c1 (stereo not drawn) [c47e]	97.2
O=C1C(NCCO)=C(Nc2cccc(Cl)c2)C(=O)c2ccccc21 [c45e]	89.2
COc1ccc(CC(=O)N2CCCC(c3nc(C)c4c(n3)N(CC3CC3)CCC4)C2)cc1 (stereo not drawn) [c52e]	85.5
CCOc1ccc2nc(NC(=N)N)nc(C)c2c1 [c37e]	85.5
OCCNc1nc(Nc2ccc(Br)cc2)nc2ccccc12 [c17e]	95.2
COc1ccc(C2CC(=O)C=C(Nc3cc(Cl)ccc3O)C2)cc1 (stereo not drawn) [c24e]	94
O=C(Nc1ccc(OC(F)(F)F)cc1)Nc1cc(-c2cccs2)n[nH]1 [c26e]	104
CC(=O)Nc1ccc(-c2cccc(COC3CCN(C(=O)c4ccc(OC(C)C)cc4)CC3)c2)cc1 [c36e]	89.8
COCCNc1nc2c(c(N3CCCCCC3)n1)CCNCC2 [c18e]	113
O=C(Nc1ccccc1N1CCCNCC1)c1ccc2ccccc2c1 [c29e]	108
COc1ccc2cc3c(nc2c1)OC(=O)N(CC1CC1)C3 [c32e]	102
COCC(=O)N[C@H]1C[C@H]2C(=O)Nc3ccc(/C=C/c4ccccc4)cc3C(=O)N2C1 [c25e]	97.4
O=C(NCCCn1ccnc1)c1cc(-c2cccc(Br)c2)nc2ccccc12 [c50e]	90.5
COc1ccc([C@@H]2CN(C)C[C@H]2NC(=O)Nc2ccc(Cl)c(Cl)c2)cc1OC [c39e]	93.1
O=[N+]([O-])c1ccc2[nH]c3c(c2c1)CCCC3NC1CCN(CCc2ccccc2)CC1 (stereo not drawn) [c23e]	96.2

====

Test: in vitro
Details: human, hela cells, % viability
So basically, if viability at 28.5 h, 10 µM comes in under 90% it's True, and if it's 90% or more it's False.

Molecule	Answer Label
Cc1nn2c(O)c3c(nc2c1-c1cccs1)CCC3	True
Cc1ccc(NS(=O)(=O)c2cccs2)cc1	True
CCOc1c(OC)cc(C#N)cc1C(=O)O	True
CCCNC(=O)c1cc(C2CCCN(Cc3ccc(F)cc3)C2)no1 (stereo not shown)	False
CC1CCC(C(C)C)C(OCC(O)CN2CCN(C)CC2)C1 (stereo not shown) [CBK278213C]	False
Cn1cccc1CN1CCCC(n2c(=O)oc3ccccc32)C1 (stereo not shown)	False
O=C(CSc1nnc2ccc3ccccc3n12)Nc1nsc(-c2ccc(Cl)cc2)n1	False
O=C(NCc1ccc(F)cc1)NC(=O)C1CCN(CCc2ccc(Br)cc2)CC1	False
